Attribution: patent US20260000087

# target.of.assay: T1, alphaS1-casein, P02662
# T1 chain: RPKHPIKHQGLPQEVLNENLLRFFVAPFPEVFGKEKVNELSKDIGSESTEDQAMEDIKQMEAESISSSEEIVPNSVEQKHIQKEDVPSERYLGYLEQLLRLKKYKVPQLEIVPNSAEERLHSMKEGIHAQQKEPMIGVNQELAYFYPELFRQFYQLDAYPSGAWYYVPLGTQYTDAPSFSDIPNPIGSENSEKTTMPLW
readout.name: Degradation of intact alphaS1-casein (% of reference A) (% of reference A)

Below, 3 proteins whose answers are already recorded.
- protein: "aspartic protease or coagulant or chymosin represented by SEQ ID NO: 1 (protein) GKIAREPLTNYLDTEYFGKIQIGSPPQEFTVVFDTGSSDLWVPSVFCNSDACQNHHRFNPSKSSTFQNMNRPLSIQYGTGSMQGFLGYDTVTVSNIVVPHQTVGLSTQEPGDIFTYSEFDGILGLAYPSLASQYSVPVFDNMMKQHLVAQDLFSVYMNSQGQGSMLILGAIDPSYYVGALHWVPVTVQQYWQFTVDRITVDGVVVACDGGCQAILDTGTSLLVGPSSDILNIQTVIGATQGQYGEFDIDCGSLRSKPTVVFEINGREYPLPPTAYTNQDQGFCTSGFQGDDSQQWVLGDVFIREYYSVFDRVNNRVGLAKAI"
  measured: 135
- protein: "aspartic protease or coagulant or chymosin represented by SEQ ID NO: 3 (protein) GEAAKVTDEPLTNYLDSQYFGKIYIGTPPQEFTVVFDTGSSNLWVPSVYCNSDACQNHHRFNPASSTTFRSTQEPLSIQYGTGSMEGVLGYDTVTVSQIVVPDQIFGLSTQEPGEIFTYSEFDGILGLGYPSLAEDQATPVFDNMMNKNLVAQDLFSVYMSRDSQGSMLILGAIDPSYYTGSLHWVPVTEQGYWQFSVDSITVNGQVVACEGGCQAILDTGTSLLVGPSYDIANIQSIIGATQGQYGEYDINCSNLSSMPTVVVHINGRQYPLPPSAYTNQDQGLCSSGFQSEGSDQLWILGDVFIREYYSVFDRGNNRVGLATAV"
  measured: 204
- protein: "camel chymosin (CHY-MAX M from Chr. Hansen A/S) (protein) GKVAREPLTSYLDSQYFGKIYIGTPPQEFTVVFDTGSSDLWVPSIYCKSNVCKNHHRFDPRKSSTFRNLGKPLSIHYGTGSMEGFLGYDTVTVSNIVDPNQTVGLSTEQPGEVFTYSEFDGILGLAYPSLASEYSVPVFDNMMDRHLVARDLFSVYMDRNGQGSMLTLGAIDPSYYTGSLHWVPVTLQQYWQFTVDSVTINGVAVACVGGCQAILDTGTSVLFGPSSDILKIQMAIGATENRYGEFDVNCGNLRSMPTVVFEINGRDYPLSPSAYTSKDQGFCTSGFQGDNNSELWILGDVFIREYYSVFDRANNRVGLAKAI"
  measured: 38

Tell us which Degradation of intact alphaS1-casein (% of reference A) (% of reference A) value is on record for aspartic protease or coagulant or chymosin represented by SEQ ID NO: 2 (protein) GKVARESLTNYLDCQYFGKIYIGTPPQEFTVVFDTGSSDLWVPSVYCNSDACQNHHRFDPSKSSTFQNMDKSLSIQYGTGSMQGLLGYDTVTVSNIVDRHQTVGLSTQEPGDVFTYSEFDGILGLAYPSLASEYSVPVFDNMMDRHLVAQDLFSVYMSRNEQGSMLTLGAIDRSYYTGSLHWIPVTVQEYWQFTVDRVTVDGVVVACDGGCQAILDTGTSMLVGPGSDIFNIQQAIGATEGQFGEFDIDCGRLSSMPTVVFEINGKKYPLPPSAYTSQDQGFCTSGFQGDYSSQQWILGDVFIREYYSVFDRASNRVGLAKAI
71

Supply recorded Degradation of intact alphaS1-casein (% of reference A) (% of reference A) for aspartic protease represented by SEQ ID NO: 4 (protein) GEVASEPLTSYLDSQYFGKIYIGTPPQEFTVVFDTGSSDLWVPSVYCKSDACQNHQRFDPSMSSTFQNLGKPLSIQYGTGSMQGFLGYDTVTVSDIVDPQQTVGLSTQEPGDVFTYSEFDGILGLAYPSLASEYSVPVFDNMMNRHLVAQDLFSVYMDRNGQESMLTLGAIDPSYYTGSLHWVPVTLQKYWQFTVDSVTIGGVVVACDGGCQAILDTGTSMLVGPSSDILNIQMAIGATQNQYGEFDIDCGSLSSMPTVVFEINSRMYPLTPSAYTNQDQGFCTSGFQGENNSQQWILGDVFIREYYSVFDRANNRVGLAKAV here.
105
